pIC50 values for Collagenase 3 (Homo sapiens, UniProt P45452) compiled from several publications are listed below.
Remember, pIC50 is on a log scale: it is -log10 of the molar concentration.

Below are worked cases with known answers.
Lookup: Provide only the value of recorded pIC50 for COC[C@H](C)NC(=O)[C@@H](NC(=O)c1ccc(-c2ccc(NC(=O)c3cccc(C)n3)cc2)o1)C1CCCCC1
Found: 7.49

Lookup: Provide only the value of recorded pIC50 for CCCCOc1ccc(S(=O)(=O)C2(C(=O)NO)CCN(C)CC2)cc1
Found: 8.82

Next:
Lookup: Provide only the value of recorded pIC50 for Cn1nc(C(=O)NCc2ccc(C(=O)O)cc2)cc1-c1ccc2[nH]c(-c3ccncc3)cc2c1
Found: 9.10

Lookup: Provide only the value of recorded pIC50 for O=C(CC(CCn1nnc2ccccc2c1=O)C(=O)O)c1cc2ccc(OCCCC3CCCCC3)cc2o1 (racemic)
Found: 4.52

---

IC50 values for Collagenase 3 (Homo sapiens) compiled from several publications are listed below.

Lookup: GET IC50 where system = Collagenase 3 (Homo sapiens) and item = C[C@@H](NC(=O)[C@@H](NC(=O)[C@H](CCCc1ccc(-c2ccccc2)c(Cl)c1)CC(=O)NO)C(C)(C)C)c1ccccc1
Found: 0.13 µM

Lookup: GET IC50 where system = Collagenase 3 (Homo sapiens) and item = NC(=O)C1CCc2sc3nc(C(=O)NCc4ccc5c(c4)NC(=O)CO5)[nH]c(=O)c3c21 (stereo not shown)
Found: < 0.1 µM

Lookup: GET IC50 where system = Collagenase 3 (Homo sapiens) and item = O=C(CCl)NC(=O)N1CCN(S(=O)(=O)c2cc(F)c(Oc3ccc(Cl)cc3)c(F)c2)[C@@H](C(=O)NO)C1
Found: < 0.05 µM

Lookup: GET IC50 where system = Collagenase 3 (Homo sapiens) and item = CC(C)NC(=O)c1nc2sc3c(c2c(=O)[nH]1)CCC3
Found: 0.1 to 20 µM

Lookup: GET IC50 where system = Collagenase 3 (Homo sapiens) and item = CNC(=O)[C@@H](NC(=O)c1ccc(-c2ccc(OCc3ccccc3)cn2)o1)C1CCCCC1
Found: 0.01 µM

Next:
Lookup: GET IC50 where system = Collagenase 3 (Homo sapiens) and item = COc1cccc(S(=O)(=O)N(CC(=O)N(C)C)[C@@H](C(=O)NO)C(C)(C)C)c1
Found: 4.95 µM

Lookup: GET IC50 where system = Collagenase 3 (Homo sapiens) and item = COc1ccc(-c2ccc(S(=O)(=O)N(OCCOCCN3CCNCC3)[C@H](CCNC(=O)OCc3ccccc3)C(=O)NO)cc2)cc1
Found: 0.0002 µM

Lookup: GET IC50 where system = Collagenase 3 (Homo sapiens) and item = CNC(=O)[C@@H](NC(=O)c1ccc(-c2ccc(OCc3ccncc3)cn2)o1)C1CCCCC1
Found: 0.001 µM

Lookup: GET IC50 where system = Collagenase 3 (Homo sapiens) and item = C[C@@H](NC(=O)c1ccccc1)c1ccc2nc(C(=O)NCc3ccc4c(c3)NC(=O)CO4)[nH]c(=O)c2c1
Found: < 0.1 µM

Lookup: GET IC50 where system = Collagenase 3 (Homo sapiens) and item = CCNC(=O)Nc1cccc(S(=O)(=O)N(CCCN2CCCCC2)[C@@H](C(=O)NO)C(C)(C)C)c1
Found: 0.05 µM

Lookup: GET IC50 where system = Collagenase 3 (Homo sapiens) and item = Cc1cc(COc2ccc(S(=O)(=O)N[C@@H]3CCC[C@@H]3C(=O)NO)cc2)c2ccccc2n1
Found: > 10 µM

---

IC50 values for Collagenase 3 (Homo sapiens) compiled from several publications are listed below.

Lookup: Provide only the value of recorded IC50 for Cc1cc(COc2ccc(S(=O)(=O)N[C@@H]3CCN(C(C)C)C[C@]3(C)C(=O)NO)cc2)c2ccccc2n1
Found: > 16700 nM

Lookup: Provide only the value of recorded IC50 for Cc1noc(-c2cc3cc(-c4nc(C(=O)NCC5CCOCC5)[nH]c4C)ccc3[nH]2)n1
Found: 1.1 nM

Lookup: Provide only the value of recorded IC50 for CC#CCOc1ccc(S(=O)(=O)N(C)[C@H](C)CS)cc1
Found: 679 nM

Lookup: Provide only the value of recorded IC50 for COc1ccc(C2SC(CC(=O)NCc3cccnc3)C(=O)N2C(Cc2ccccc2)C(=O)NO)cc1 (centres unmarked)
Found: 108 nM

---

log10 IC50 values for Collagenase 3 (Homo sapiens, UniProt P45452) compiled from several publications are listed below.
// do not treat as linear: log10 of IC50, unit µM

Below are worked cases with known answers.
Lookup: Provide only the value of recorded log10 IC50 for Cc1cccc(C(=O)NO)c1N(C)S(=O)(=O)c1ccc(OCCCCNC(=O)c2cc3ccccc3o2)cc1
Found: -0.33

Lookup: Provide only the value of recorded log10 IC50 for Cn1nc(C(=O)NCc2ccc(C(=O)O)cc2)cc1-c1ccc2[nH]c(-c3cccnc3)cc2c1
Found: -2.52

Lookup: Provide only the value of recorded log10 IC50 for CNC(=O)[C@@H](NC(=O)c1ccc(-c2ccc(C#N)cc2)o1)C1CCOCC1
Found: -1.05

Lookup: Provide only the value of recorded log10 IC50 for CC#CCOc1ccc(S(=O)(=O)C2(C(=O)NO)CCCN(Cc3ccc(Cl)cc3)C2)cc1 (stereo not shown)
Found: 0.07

Lookup: Provide only the value of recorded log10 IC50 for CNC(=O)[C@@H](NC(=O)c1ccc(-c2cccc(CNC(=O)c3cccc(C(F)(F)F)c3)c2)o1)C(C)C
Found: -1.31

Lookup: Provide only the value of recorded log10 IC50 for CCCCC#Cc1ccc(C2SCC(=O)N2C(CC(C)C)C(=O)NO)cc1 (stereo not shown)
Found: -0.12

Lookup: Provide only the value of recorded log10 IC50 for CCCCCCOc1ccc2c(C(=O)CC(CCn3nnc4ccccc4c3=O)C(=O)O)coc2c1 (single isomer, unassigned; (+))
Found: -0.85

Lookup: Provide only the value of recorded log10 IC50 for O=C(CC(CCn1nnc2ccccc2c1=O)C(=O)O)c1cc2cc(OCc3cccc(Cl)c3)ccc2o1 (racemic)
Found: 0.60

Lookup: Provide only the value of recorded log10 IC50 for Cc1cc(Cn2cc(-c3ccnc(C(=O)NCc4ccc(C(=O)O)cc4)c3)cn2)ccc1F
Found: -0.89

Lookup: Provide only the value of recorded log10 IC50 for CC#CCOc1ccc([S+]([O-])C2(C(=O)NO)CCN(C(=O)OC(C)(C)C)CC2)cc1 (stereo not shown)
Found: -1.40

In the following, a different compound is considered.
Lookup: Provide only the value of recorded log10 IC50 for Cc1noc(-c2cc3cc(-c4nc(C(=O)NC5CC5)[nH]c4C)ccc3[nH]2)n1
Found: -1.59

---

pIC50 values for Collagenase 3 (Homo sapiens) compiled from several publications are listed below.
Remember, pIC50 is on a log scale: it is -log10 of the molar concentration.

Below are worked cases with known answers.
Lookup: GET pIC50 where system = Collagenase 3 (Homo sapiens) and item = CNC(=O)[C@@H](NC(=O)c1ccc(-c2ccc(-c3cnc(N)nc3)cn2)o1)C(C)C
Found: 6.42

Lookup: GET pIC50 where system = Collagenase 3 (Homo sapiens) and item = CNC(=O)[C@@H](NC(=O)c1ccc(-c2ccc(OCc3ccn[nH]3)cn2)o1)C1CCCCC1
Found: 8.22

Lookup: GET pIC50 where system = Collagenase 3 (Homo sapiens) and item = Cc1noc(-c2cc3cc(-c4cc(C(=O)NCC5CCOCC5)nn4C)ccc3[nH]2)n1
Found: 6.94

Next:
Lookup: GET pIC50 where system = Collagenase 3 (Homo sapiens) and item = CNC(=O)[C@@H](NC(=O)c1ccc(-c2cccc(CNC(=O)c3cccc(C(F)(F)F)n3)c2)o1)C1CCOCC1
Found: 8.70

Lookup: GET pIC50 where system = Collagenase 3 (Homo sapiens) and item = CCCNC(=O)CC1SC(c2ccc(Cl)cc2)N(C(Cc2ccc(OC(C)(C)C)cc2)C(=O)NO)C1=O (stereo not drawn)
Found: 7.43

---

IC50 values for UniProt:P45452 compiled from several publications are listed below.
Dear colleague, please return just the value in nM, with no unit written.

Lookup: GET IC50 where system = UniProt:P45452 and item = Cc1cccc(C(=O)NO)c1N(C)S(=O)(=O)c1ccc(OCCCNC(=O)c2cc3ccccc3s2)cc1
Found: 43

Next:
Lookup: GET IC50 where system = UniProt:P45452 and item = CCCCOc1ccc(S(=O)(=O)C2(C(=O)NO)CCN(Cc3ccc(C)cc3)CC2)cc1
Found: 2.3

Lookup: GET IC50 where system = UniProt:P45452 and item = CC#CCOc1ccc([S+]([O-])CC2(C(=O)NO)CCN(C(=O)OC(C)(C)C)CC2)cc1 (stereo not drawn)
Found: 2750

Lookup: GET IC50 where system = UniProt:P45452 and item = O=C(CC(CCn1nnc2ccccc2c1=O)C(=O)O)c1coc2cc(OCCC3CCCC3)ccc12 (racemic)
Found: 3800

Lookup: GET IC50 where system = UniProt:P45452 and item = O=C(O)[C@@H]1[C@@H](Cn2nnc3ccc(C(F)(F)F)cc3c2=O)CC[C@H]1C(=O)c1ccc(OCc2ccc(Cl)cc2)cc1 (single isomer, unassigned)
Found: 45

Lookup: GET IC50 where system = UniProt:P45452 and item = CNC(=O)[C@@H](NC(=O)c1ccc(-c2ccc(OCc3cccnc3)cn2)o1)C1CCCCC1
Found: 2

Lookup: GET IC50 where system = UniProt:P45452 and item = CNC(=O)[C@@H](NC(=O)c1ccc(-c2cccc(CNC(=O)C3CCCN(C)C3)c2)o1)C(C)C (stereo partly drawn)
Found: 215

Lookup: GET IC50 where system = UniProt:P45452 and item = Cc1cccc(COc2ccc(C(=O)[C@@H]3CC[C@H](Cn4nnc5ccc(C(F)(F)F)cc5c4=O)[C@H]3C(=O)O)cc2)c1 (single isomer, unassigned)
Found: 1000

Lookup: GET IC50 where system = UniProt:P45452 and item = Cc1ccc2nnn(C[C@@H]3CC[C@H](C(=O)c4ccc(OCc5ccccc5)cc4)[C@H]3C(=O)O)c(=O)c2c1 (racemic)
Found: 50
